System: 966289-007-R4-J1-PDC complex spheroid viability;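 also: spheroids exposed to the agents for seven days before readout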
experiment.description: Anticancer human tumor 966289-007-R4-J1-PDC patient-derived pancreatic adenocarcinoma cell line growth inhibition [GQUAD]
measurement.context: curve of compound
pIC50: −log10 of the molar value.
endpoint: pIC50

Look over these answered cases.
{"molecule": "Nc1ccn(C2OC(CO)C(O)C2(F)F)c(=O)n1 (centres undefined)", "endpoint": "pIC50", "val": "> 7.50"}
{"molecule": "CC(=O)O[C@H]1C(=O)[C@@]2(C)[C@H]([C@H](OC(=O)c3ccccc3)[C@]3(O)C[C@H](OC(=O)[C@H](O)[C@@H](NC(=O)c4ccccc4)c4ccccc4)C(C)=C1C3(C)C)[C@]1(OC(C)=O)CO[C@@H]1C[C@@H]2O", "endpoint": "pIC50", "val": "> 7.50"}
{"molecule": "CCc1c2c(nc3ccc(O)cc13)-c1cc3c(c(=O)n1C2)COC(=O)[C@]3(O)CC", "endpoint": "pIC50", "val": "> 9.00"}
{"molecule": "COc1ncnc(C2CC2)c1-c1ncc2cnn(Cc3ccc(-c4nc(C(F)(F)F)cn4C(C)C)cc3)c2n1", "endpoint": "pIC50", "val": "< 5.00"}
{"molecule": "C#Cc1c(F)ccc2cc(O)cc(-c3ncc4c(N5CC6CCC(C5)N6)nc(OCC56CCCN5CC(F)C6)nc4c3F)c12 (centres undefined)", "endpoint": "pIC50", "val": "< 5.00"}

Go through the list and state pIC50 for each entry.
1. C=CC(=O)N1CCN(c2nc(=O)n(-c3c(C)ccnc3C(C)C)c3nc(-c4c(O)cccc4F)c(F)cc23)C(C)C1 (centres undefined)
2. COc1ccc([C@@H](O)c2cc(-c3ncnc4cc(N5CCOCC5)ccc34)c(F)cc2Cl)nn1
3. CC(C)n1c(=O)n(C)c2cnc3cc(F)c(-c4ccc(OCCCN5CCCCC5)nc4)cc3c21
4. Cc1cccc(N(C)C(=O)C2C(O)CCN2c2nc(C)cc(C(F)(F)F)c2C#N)c1 (centres undefined)

-- reply
1: < 5.00; 2: < 5.00; 3: < 5.00; 4: < 5.00
